Measured target: Protein cereblon/Tyrosine-protein kinase ITK/TSK (Homo sapiens, UniProt Q08881+Q96SW2)
Sequence (Q08881 whole entry): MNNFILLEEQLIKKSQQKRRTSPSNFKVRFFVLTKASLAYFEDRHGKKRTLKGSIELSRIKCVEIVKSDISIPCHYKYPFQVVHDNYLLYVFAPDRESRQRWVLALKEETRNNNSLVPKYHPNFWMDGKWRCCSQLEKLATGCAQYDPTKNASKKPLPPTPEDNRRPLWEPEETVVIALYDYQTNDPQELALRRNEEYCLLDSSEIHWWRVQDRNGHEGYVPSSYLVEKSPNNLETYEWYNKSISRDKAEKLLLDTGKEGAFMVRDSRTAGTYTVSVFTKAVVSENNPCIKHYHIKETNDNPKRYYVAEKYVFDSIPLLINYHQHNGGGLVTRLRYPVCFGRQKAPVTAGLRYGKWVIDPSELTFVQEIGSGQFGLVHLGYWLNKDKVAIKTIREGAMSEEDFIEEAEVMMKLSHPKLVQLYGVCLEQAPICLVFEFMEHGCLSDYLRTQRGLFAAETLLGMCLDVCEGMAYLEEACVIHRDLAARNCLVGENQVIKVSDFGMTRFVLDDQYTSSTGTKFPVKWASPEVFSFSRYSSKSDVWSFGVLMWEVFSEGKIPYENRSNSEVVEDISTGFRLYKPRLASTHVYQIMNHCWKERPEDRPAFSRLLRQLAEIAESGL
Sequence (Q96SW2 whole entry): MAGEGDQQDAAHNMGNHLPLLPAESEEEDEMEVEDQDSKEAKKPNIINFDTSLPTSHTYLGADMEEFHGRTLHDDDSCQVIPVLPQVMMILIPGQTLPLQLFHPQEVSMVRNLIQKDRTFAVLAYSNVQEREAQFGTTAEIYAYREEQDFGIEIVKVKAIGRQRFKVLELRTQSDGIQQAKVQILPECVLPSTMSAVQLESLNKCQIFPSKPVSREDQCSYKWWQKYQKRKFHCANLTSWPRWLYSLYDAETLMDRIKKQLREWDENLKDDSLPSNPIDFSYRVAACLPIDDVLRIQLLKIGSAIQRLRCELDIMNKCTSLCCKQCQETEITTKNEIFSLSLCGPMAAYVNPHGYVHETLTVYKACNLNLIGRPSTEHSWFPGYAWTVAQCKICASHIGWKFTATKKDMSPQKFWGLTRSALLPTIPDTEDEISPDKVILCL
Experiment: PROTAC activity at CRBN/ITK in human Jurkat cells assessed as induction of ITK degradation by Western blot analysis
Assay type: cell-based
Study conditions: read-out: EC50
pEC50: −log10 of the molar value.
Observable: pEC50

compound="CN(CCOCCOCC(=O)Nc1cccc2c1C(=O)N(C1CCC(=O)NC1=O)C2=O)CC[C@@H](c1ccccc1)n1cc(NC(=O)c2n[nH]c3c2CCC(C)(C)C3)cn1 (stereo partly drawn)" recorded_result=6.66
compound="CC1(C)CCc2c(C(=O)Nc3cnn([C@@H](CCN4CCN(CC5CN(c6ccc7c(c6)C(=O)N(C6CCC(=O)NC6=O)C7=O)C5)CC4)c4ccccc4)c3)n[nH]c2C1 (stereo partly drawn)" recorded_result=8.00
compound="CC1(C)CCc2c(C(=O)Nc3cnn([C@@H](CCN4CCN(CCC5CCN(c6ccc7c(c6)C(=O)N(C6CCC(=O)NC6=O)C7=O)CC5)CC4)c4ccccc4)c3)n[nH]c2C1.O=C(O)C(F)(F)F (stereo partly drawn)" recorded_result=8.44
compound="CN(CCOCCOCCOCC(=O)Nc1cccc2c1C(=O)N(C1CCC(=O)NC1=O)C2=O)CC[C@@H](c1ccccc1)n1cc(NC(=O)c2n[nH]c3c2CCC(C)(C)C3)cn1 (stereo partly drawn)" recorded_result=6.45
compound="CN(CCOCCOCCNC(=O)CNc1cccc2c1C(=O)N(C1CCC(=O)NC1=O)C2=O)CC[C@@H](c1ccccc1)n1cc(NC(=O)c2n[nH]c3c2CCC(C)(C)C3)cn1 (stereo partly drawn)" recorded_result=7.49
compound="CN(CCCCCCCCCCC(=O)Nc1ccc2c(c1)C(=O)N(C1CCC(=O)NC1=O)C2=O)CC[C@@H](c1ccccc1)n1cc(NC(=O)c2n[nH]c3c2CCC(C)(C)C3)cn1 (stereo partly drawn)" recorded_result=7.12
compound="CN(CCOCCOCCOCCOCC(=O)Nc1ccc2c(c1)C(=O)N(C1CCC(=O)NC1=O)C2=O)CC[C@@H](c1ccccc1)n1cc(NC(=O)c2n[nH]c3c2CCC(C)(C)C3)cn1 (stereo partly drawn)" recorded_result=6.98
compound="CN(CCOCCOCCOCC(=O)Nc1ccc2c(c1)C(=O)N(C1CCC(=O)NC1=O)C2=O)CC[C@@H](c1ccccc1)n1cc(NC(=O)c2n[nH]c3c2CCC(C)(C)C3)cn1 (stereo partly drawn)" recorded_result=7.03
compound="CN(CCCCC(=O)Nc1ccc2c(c1)C(=O)N(C1CCC(=O)NC1=O)C2=O)CC[C@@H](c1ccccc1)n1cc(NC(=O)c2n[nH]c3c2CCC(C)(C)C3)cn1 (stereo partly drawn)" recorded_result=8.28
compound="CN(CCOCCNC(=O)CNc1cccc2c1C(=O)N(C1CCC(=O)NC1=O)C2=O)CC[C@@H](c1ccccc1)n1cc(NC(=O)c2n[nH]c3c2CCC(C)(C)C3)cn1 (stereo partly drawn)" recorded_result=7.49
compound="CN(CCCCCC(=O)Nc1ccc2c(c1)C(=O)N(C1CCC(=O)NC1=O)C2=O)CC[C@@H](c1ccccc1)n1cc(NC(=O)c2n[nH]c3c2CCC(C)(C)C3)cn1.O=C(O)C(F)(F)F (stereo partly drawn)" recorded_result=8.15
compound="CC1(C)CCc2c(C(=O)Nc3cnn([C@@H](CCN4CCN(CC5CCN(c6ccc7c(c6)C(=O)N(C6CCC(=O)NC6=O)C7=O)CC5)CC4)c4ccccc4)c3)n[nH]c2C1 (stereo partly drawn)" recorded_result=7.53
compound="CN(CCCCCCC(=O)Nc1ccc2c(c1)C(=O)N(C1CCC(=O)NC1=O)C2=O)CC[C@@H](c1ccccc1)n1cc(NC(=O)c2n[nH]c3c2CCC(C)(C)C3)cn1 (stereo partly drawn)" recorded_result=8.05
